These entries and their values trace back to patent US7118895B2.

- System: Crude diglycosidase
- ASSAY_OVERVIEW: Examination of pH in the conversion into isoflavone aglycons by diglycosidase using soybean materials
- Format: biochemical, Penicillium multicolor IAM7153
- TEST_CONTEXT: pH4.8; heat treatment of enzyme: yes; reaction time 6 h
MEASUREMENT_LABEL: Decomposition efficiency of daidzin family in soymilk

Qu. Fill in reported Decomposition efficiency of daidzin family in soymilk for this entry: O=C(O)CC(=O)OC[C@H]1O[C@@H](Oc2ccc3c(=O)c(-c4ccc(O)cc4)coc3c2)[C@H](O)[C@@H](O)[C@@H]1O [malonyldaidzin, 6″-O-malonyldaidzin]
Ans. 49.7%

Qu. Answer with the recorded Decomposition efficiency of daidzin family in soymilk for the molecule listed here: O=c1c(-c2ccc(O)cc2)coc2cc(O[C@@H]3O[C@H](CO)[C@@H](O)[C@H](O)[C@H]3O)ccc12 [daidzin]
Ans. 41.2%

Qu. Answer with reported Decomposition efficiency of daidzin family in soymilk of O=c1c(-c2ccc(O)cc2)coc2cc(O)ccc12 [daidzein]
Ans. 9.1%

###

- Test system: Crude diglycosidase
- ASSAY_OVERVIEW: Examination of temperature in the conversion into isoflavone aglycons by diglycosidase using soybean materials
- Format: biochemical, Penicillium multicolor IAM7153
- Parameters: concentration or dose not given beside the values
- TEST_CONTEXT: 45° C., heat treatment of enzyme no, reaction time 3 h
Could you please report measured Decomposition efficiency of daidzin family in defatted soybean for the items listed next?
Express the result in % but write the number alone.

Qu. Look up Decomposition efficiency of daidzin family in defatted soybean of O=C(O)CC(=O)OC[C@H]1O[C@@H](Oc2ccc3c(=O)c(-c4ccc(O)cc4)coc3c2)[C@H](O)[C@@H](O)[C@@H]1O [malonyldaidzin, 6″-O-malonyldaidzin] and report it.
Ans. 43.7

Qu. Read the entry O=c1c(-c2ccc(O)cc2)coc2cc(O)ccc12 [daidzein] and write its reported Decomposition efficiency of daidzin family in defatted soybean.
Ans. 56.3

###

Kindly state Decomposition efficiency of glycitin family in concentrated soybean protein for each of the entries shown.
- Test system: Crude diglycosidase
- ASSAY_OVERVIEW: Examination of pH in the conversion into isoflavone aglycons by diglycosidase using soybean materials
- Assay type: biochemical, Penicillium multicolor IAM7153
- TEST_CONTEXT: pH5.1; heat treatment of enzyme: no; reaction time 1 h
Numbers only here, please. The scale is %.

Qu. Supply measured Decomposition efficiency of glycitin family in concentrated soybean protein of COc1cc2c(=O)c(-c3ccc(O)cc3)coc2cc1O[C@@H]1O[C@H](CO)[C@@H](O)[C@H](O)[C@H]1O in your reply.
Ans. 4.1

Qu. Please report the measured Decomposition efficiency of glycitin family in concentrated soybean protein for COc1cc2c(=O)c(-c3ccc(O)cc3)coc2cc1O
Ans. 62.1

Qu. Determine its reported Decomposition efficiency of glycitin family in concentrated soybean protein: COc1cc2c(=O)c(-c3ccc(O)cc3)coc2cc1O[C@@H]1O[C@H](COC(=O)CC(=O)O)[C@@H](O)[C@H](O)[C@H]1O
Ans. 0.6

Qu. // Input: COc1cc2c(=O)c(-c3ccc(O)cc3)coc2cc1O[C@@H]1O[C@H](COC(C)=O)[C@@H](O)[C@H](O)[C@H]1O . Output its Decomposition efficiency of glycitin family in concentrated soybean protein only.
Ans. 33.2

###

- Tested on: Crude diglycosidase
- ASSAY_OVERVIEW: Examination of substrate concentration in the conversion into isoflavone aglycons by diglycosidase using soybean materials
- Assay type: biochemical, Penicillium multicolor IAM7153
- TEST_CONTEXT: substrate concentration 10%, heat treatment of enzyme no, reaction time 6 h
Provide the recorded Decomposition efficiency of genistin family in defatted soybean for the entries that follow.
The reply should be a number, written without any unit.

Qu. // Input: O=C(O)CC(=O)OC[C@H]1O[C@@H](Oc2cc(O)c3c(=O)c(-c4ccc(O)cc4)coc3c2)[C@H](O)[C@@H](O)[C@@H]1O [malonylgenistin, 6″-O-malonylgenistin] . Output its Decomposition efficiency of genistin family in defatted soybean only.
Ans. 29.1

Qu. Find the measured Decomposition efficiency of genistin family in defatted soybean of CC(=O)OC[C@H]1O[C@@H](Oc2cc(O)c3c(=O)c(-c4ccc(O)cc4)coc3c2)[C@H](O)[C@@H](O)[C@@H]1O [acetylgenistin, 6″-O-acetylgenistin] and report it.
Ans. 0.6

Qu. Return value of Decomposition efficiency of genistin family in defatted soybean for input O=c1c(-c2ccc(O)cc2)coc2cc(O)cc(O)c12 [genistein] , no commentary.
Ans. 70.3

###

- Tested on: Crude diglycosidase
- ASSAY_OVERVIEW: Examination of substrate concentration in the conversion into isoflavone aglycons by diglycosidase using soybean materials;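 for Decomposition efficiency: ratio of each glycoside/aglycon within its isoflavone family: percent of the isoflavone family total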
- Assay type: biochemical, Penicillium multicolor IAM7153
- TEST_CONTEXT: roasted soy flour, substrate concentration 2%, heat treatment of enzyme yes, reaction time 6 h
MEASUREMENT_LABEL: Decomposition efficiency: ratio of each glycoside/aglycon within its isoflavone family

CC(=O)OC[C@H]1O[C@@H](Oc2cc(O)c3c(=O)c(-c4ccc(O)cc4)coc3c2)[C@H](O)[C@@H](O)[C@@H]1O [acetylgenistin, 6″-O-acetylgenistin]	45.0%
O=C(O)CC(=O)OC[C@H]1O[C@@H](Oc2cc(O)c3c(=O)c(-c4ccc(O)cc4)coc3c2)[C@H](O)[C@@H](O)[C@@H]1O [malonylgenistin, 6″-O-malonylgenistin]	not detected
COc1cc2c(=O)c(-c3ccc(O)cc3)coc2cc1O[C@@H]1O[C@H](COC(=O)CC(=O)O)[C@@H](O)[C@H](O)[C@H]1O [malonylglycitin, 6″-O-malonylglycitin]	not detected

###

- System: Crude diglycosidase
- ASSAY_OVERVIEW: Examination of pH in the conversion into isoflavone aglycons by diglycosidase using soybean materials
- Type: biochemical, Penicillium multicolor IAM7153
- TEST_CONTEXT: pH2.7; heat treatment of enzyme: no; reaction time 0 h
Give Decomposition efficiency of daidzin family in concentrated soybean protein for every item shown.
Express your answer in %, writing the number without its unit.

Qu. For the compound O=c1c(-c2ccc(O)cc2)coc2cc(O)ccc12 [daidzein] , give its reported Decomposition efficiency of daidzin family in concentrated soybean protein.
Ans. 3.0

Qu. Write down Decomposition efficiency of daidzin family in concentrated soybean protein measured for item CC(=O)OC[C@H]1O[C@@H](Oc2ccc3c(=O)c(-c4ccc(O)cc4)coc3c2)[C@H](O)[C@@H](O)[C@@H]1O [acetyldaidzin, 6″-O-acetyldaidzin]
Ans. 44.5

Qu. Please give measured Decomposition efficiency of daidzin family in concentrated soybean protein of the following entry: O=c1c(-c2ccc(O)cc2)coc2cc(O[C@@H]3O[C@H](CO)[C@@H](O)[C@H](O)[C@H]3O)ccc12 [daidzin]
Ans. 52.5

###

- System: Crude diglycosidase
- ASSAY_OVERVIEW: Examination of temperature in the conversion into isoflavone aglycons by diglycosidase using soybean materials
- Assay type: biochemical, Penicillium multicolor IAM7153
- Set-up: concentration or dose not given beside the values
- TEST_CONTEXT: 65° C., heat treatment of enzyme no, reaction time 1 h
Give measured Decomposition efficiency of glycitin family in defatted soybean for each item. Keep answers brief.
Field format: number, assumed %, no unit text.

Qu. Specify measured Decomposition efficiency of glycitin family in defatted soybean for COc1cc2c(=O)c(-c3ccc(O)cc3)coc2cc1O[C@@H]1O[C@H](COC(=O)CC(=O)O)[C@@H](O)[C@H](O)[C@H]1O [malonylglycitin, 6″-O-malonylglycitin] .
Ans. 45.3

Qu. Give a short answer stating reported Decomposition efficiency of glycitin family in defatted soybean for COc1cc2c(=O)c(-c3ccc(O)cc3)coc2cc1O [glycitein] .
Ans. 54.7

###

- Tested on: Crude diglycosidase
- ASSAY_OVERVIEW: Examination of temperature in the conversion into isoflavone aglycons by diglycosidase using soybean materials
- Format: biochemical, Penicillium multicolor IAM7153
- TEST_CONTEXT: 65 °C; heat treatment of enzyme: no; 1 h
MEASUREMENT_LABEL: Decomposition efficiency of glycitin family in concentrated soybean protein (%)
Just the number please, in %, no unit attached.

Qu. Please report Decomposition efficiency of glycitin family in concentrated soybean protein with Crude diglycosidase for item COc1cc2c(=O)c(-c3ccc(O)cc3)coc2cc1O[C@@H]1O[C@H](COC(=O)CC(=O)O)[C@@H](O)[C@H](O)[C@H]1O [malonylglycitin, 6″-O-malonylglycitin] .
Ans. 0.5

Qu. Please report the measured Decomposition efficiency of glycitin family in concentrated soybean protein for COc1cc2c(=O)c(-c3ccc(O)cc3)coc2cc1O[C@@H]1O[C@H](CO)[C@@H](O)[C@H](O)[C@H]1O [glycitin] tested on Crude diglycosidase.
Ans. 5.2

Qu. Enter Decomposition efficiency of glycitin family in concentrated soybean protein (test system Crude diglycosidase) for COc1cc2c(=O)c(-c3ccc(O)cc3)coc2cc1O [glycitein]
Ans. 58.6

Qu. Give reported Decomposition efficiency of glycitin family in concentrated soybean protein for COc1cc2c(=O)c(-c3ccc(O)cc3)coc2cc1O[C@@H]1O[C@H](COC(C)=O)[C@@H](O)[C@H](O)[C@H]1O [acetylglycitin, 6″-O-acetylglycitin] (Crude diglycosidase)
Ans. 35.7
